testDetails: E. coli acrAB mutant growth effects, primary screen, E. coli filamentation inducers, strain DRC39, OD650, 24 h (AID 1178);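 further: growth measured as culture turbidity by optical density at 650 nm; test concentration not given here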
conditionNotes: higher = more signal, called active from +8 up or from −8 down
readoutName: z-score
Please reply with the number alone, leaving off any unit.

## Input Quick one: z-score for "CC(C)[C@@H](OCc1ccccc1)[C@H](C)C=NOC[C@@H](O)[C@H]1O[C@@H]2OC(C)(C)O[C@@H]2[C@H]1O" ?
## Output 0.0024

## Input Please report the recorded z-score for "OC[C@H]1O[C@H](C#Cc2ccccc2)C=C[C@@H]1O" .
## Output 0.953

## Input Reported z-score, compound "Cc1ccc(S(=O)(=O)N[C@@H]2COC(=O)CC=C[C@@H](C)[C@H](NS(=O)(=O)c3ccc(C)cc3)COC(=O)[C@H](C)NC(=O)CC=C[C@H]2C)cc1" : ____
## Output 0.983

## Input Form field: reported z-score of CCOC(=O)[C@H](CC(C)C)NC(=O)CCC1CC(OC(=O)NCc2ccc3c(c2)OCO3)CC2(CCCC(COC(=O)NCCOc3ccccc3)O2)O1 (stereo partly drawn)
## Output -0.0466

## Input Quick check: z-score of "CCOC(=O)CCN1C(=O)[C@H]2[C@H]3[C@H](O)[C@H](O)CC(=NOCC=C(C)CCC=C(C)C)[C@H]3CC[C@H]2C1=O" ?
## Output 0.614

## Input I am curious: what z-score value has been reported for "O=C1C[C@H](c2ccccc2)[C@H](c2ccc(Br)cc2)O1" ?
## Output 0.358

## Input Endpoint output: z-score of "O=C1C=C[C@@H](O)[C@@H]2[C@@H]3C(=O)N(C4CCCCC4)C(=O)[C@@H]3CC[C@@H]12" . Value?
## Output -0.292

## Input Report z-score for "CON=C1c2cc(OC)ccc2O[C@H](c2cccc(OC)c2)[C@H]1O" please.
## Output 0.489

----------
testDetails: basal 3T3-L1 adipocyte mitochondrial potential changes, profiling panel, cell-based, JC-1 fluorescence, 3T3-L1 adipocytes, 24 h, 100 nL compound (AID 1168); further: test concentration not given here
conditionNotes: JC-1 mitochondrial fluorescence, higher = more signal, called active from +8 up or from −8 down
readoutName: z-score
Kindly provide the number alone.

## Input Could you tell me which z-score is on file for "CC#CCOCCC=C1c2ccccc2[C@@H](OC)[C@@H]1C" ?
## Output -0.669

## Input Form field: reported z-score of CCOC(=O)[C@H](Cc1ccccc1)NC(=O)CCC1CC(OC(=O)NCc2cccc3ccccc23)CC2(CCCC(COC(=O)NCC3CCCCC3)O2)O1 (some centres undefined)
## Output -0.00973

## Input For the compound shown here, "COc1ccc(O[C@H]2C=C[C@@H](c3ccccc3)O[C@@H]2CON=C2c3cc(OC)ccc3O[C@H](c3cccc(OC)c3)[C@H]2O)cc1" , give the reported z-score.
## Output -2.37

## Input Which z-score is reported for this compound? "CO[C@H]1COC(=O)CCC[C@H](C)[C@@H](OC)COC(=O)CC=C[C@@H]1C"
## Output -0.713

----------
Please respond with reported composite z-score for every item in the list.
testDetails: small-molecule microarray binders of probe aLefty2, primary screen, biochemical, biotinylated probe, 635/667 nm fluorescence (AID 1094);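 further: score merges spot fluorescence near 667 nm with spot signal-to-noise ratio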
conditionNotes: higher = more signal
// return just the number, without any unit appended

## Input Please give the measured composite z-score for this compound: "C#CCCCON=C1[C@H]2CCn3c(=O)n(Cc4cc5c(cc4Cl)OCO5)c(=O)n3[C@H]2[C@H](O)[C@@H]2O[C@H]12"
## Output 0.147

## Input Request the reported composite z-score associated with COC(=O)CC=C[C@@H](C)[C@@H](C=NOC(C)CN1CCCCc2nc(C)c(C)cc21)NS(=O)(=O)c1ccc(C)cc1 (some centres not stated)
## Output 0.0768

## Input Recorded composite z-score for "O=C1C=C[C@@H](O)[C@@H]2[C@@H]3C(=O)N(C4CCCCC4)C(=O)[C@@H]3CC[C@@H]12" , please?
## Output -0.0678

## Input Name the recorded composite z-score for "CCN1C(=O)[C@H]2[C@H]3[C@H](O)[C@H](O)CC(=NOCC(C)C)[C@H]3CC[C@H]2C1=O" .
## Output -0.019

## Input So what's the measured composite z-score for this one? COC(=O)[C@H](C)NC(=O)CCC1CC(OC(=O)NCCc2ccc(F)cc2)CC2(CCCC(COC(=O)NCc3ccccc3)O2)O1 (some centres not stated)
## Output -0.0898

## Input # query: composite z-score of entry "CCc1cc2c(nc1CC)CCN(CCC(C)=NO[C@@H]1O[C@H](COC(C)=O)[C@@H](OC(C)=O)[C@H](OC(C)=O)[C@H]1OC(C)=O)C2"
## Output -0.0271

## Input So what does the record say about composite z-score for CCOC(=O)[C@H](CC(C)C)NC(=O)CCC1CC(OC(=O)NCc2ccc3c(c2)OCO3)CC2(CCCC(COC(=O)NCCC(C)C)O2)O1 (some centres not stated) ?
## Output -0.193

----------
testDetails: compound binding in COS7 lysate, probe aLAP1, primary screen, cell lysate, small-molecule microarray (AID 1124);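 further: lysate comes from COS7 cells expressing LAP1 and is applied at 0.3 µg/mL; score merges spot fluorescence near 667 nm with signal-to-noise over triplicate slides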
conditionNotes: probe aLAP1, fluorescence, higher = more signal
Kindly return true if reported composite z-score is no lower than 0.04; return false if it is lower.

## Input Hi team, for "COC(=O)[C@H](Cc1ccccc1)NC(=O)[C@@H](C)CO" , is the recorded composite z-score at or above 0.04?
## Output true

## Input Identify whether the reported composite z-score of the following molecule is 0.04 or greater: CCOC(=O)[C@H](Cc1ccccc1)NC(=O)CCC1CC(OC(=O)NCc2ccc3c(c2)OCO3)CC2(CCCC(COC(=O)NCCCN3CCCC3=O)O2)O1 (stereo partly drawn)
## Output true

## Input Can COC(=O)[C@H](C)NC(=O)CCC1CC(OC(=O)NCc2cccc3ccccc23)CC2(CCCC(COC(=O)NCCCN3CCCC3=O)O2)O1 (stereo partly drawn) be said to have composite z-score at or above 0.04?
## Output false

## Input Is it the case that "CCOC(=O)CCN1C(=O)[C@H]2[C@H]3[C@H](O)[C@H](O)CC(=NOCC=C(C)CCC=C(C)C)[C@H]3CC[C@H]2C1=O" has composite z-score reaching or exceeding 0.04?
## Output false

## Input Does composite z-score meet or surpass 0.04 for "CO[C@@H](C1CCCCC1)[C@@H](C)[C@H](OCc1cccc(Br)c1)[C@@H](C)CO" ?
## Output false

## Input Please indicate if the recorded composite z-score for "Cc1ccc(C(C)C)n1C(=O)OC(C)(C)C" meets or exceeds 0.04.
## Output true

## Input Item "Cc1cc(C)c(-c2cc([C@H](C)ON=C[C@@H](C)[C@H](OCc3ccccc3)C(C)C)on2)c(C)c1" with composite z-score of 0.04 or above?
## Output false

## Input Is reported composite z-score greater than or equal to 0.04 here: "CCN1C(=O)[C@H]2[C@H]3[C@H](O)[C@H](O)CC(=NOCC=C(C)CCC=C(C)C)[C@@H]3CC[C@H]2C1=O"
## Output true

----------
testDetails: HepG2 cell viability effects, profiling panel, calcein-AM fluorescence, 48 h, basal (AID 1164); further: test concentration not given here
conditionNotes: higher = more signal
Give z-score for every item shown.

## Input What measured z-score goes with CCOC(=O)[C@H](Cc1ccccc1)NC(=O)CCC1CC(OC(=O)NCCc2ccc(F)cc2)CC2(CCCC(COC(=O)NCc3cccc(C(F)(F)F)c3)O2)O1 (stereo not given in full) ?
## Output -0.875

## Input What measured z-score goes with "CCCNC(=O)OC[C@H]1O[C@H](CCON=C[C@@H](C)[C@H](OCc2ccccc2)C(C)C)C=C[C@@H]1Oc1ccc(OC)cc1" ?
## Output 1.72

## Input Look at this compound and give its reported z-score. "C#CCCCON=C1C[C@@H](O)[C@@H](O)[C@@H]2[C@@H]3C(=O)N(C[C@@H]4CCCO4)C(=O)[C@@H]3CC[C@@H]12"
## Output -0.396

## Input Which z-score value is on record for "COc1ccc(O[C@H]2C=C[C@@H](c3ccccc3)O[C@@H]2CO)cc1" ?
## Output -0.27

## Input Consider the compound "COc1ccc(COC(=O)NN=C2C[C@@H](O)[C@@H](O)[C@@H]3[C@@H]4C(=O)N(C[C@@H]5CCCO5)C(=O)[C@@H]4CC[C@H]23)cc1" and give its measured z-score.
## Output -0.592

## Input Which measured z-score value corresponds to COC(=O)[C@H](C)NC(=O)CCC1CC(OC(=O)NCCc2ccc(F)cc2)CC2(CCCC(COC(=O)NCc3ccccc3)O2)O1 (stereo not given in full) ?
## Output 0.601

## Input // lookup z-score for "O=C1C2=CC[C@H]3C(=O)N(C[C@@H]4CCCO4)C(=O)[C@H]3[C@H]2[C@H](O)[C@@H]2O[C@H]12"
## Output -0.228

## Input // z-score lookup, key: "CC(C)(C)N1C(=O)[C@H]2[C@@H]3C(=CC[C@H]2C1=O)C(=O)[C@H]1O[C@H]1[C@H]3O"
## Output -4.31

## Input Value lookup for z-score; key = "O=C1[C@H]2[C@H]3[C@H](O)[C@H](O)CC(=NOC[C@@H](O)COCc4ccco4)[C@@H]3CC[C@H]2C(=O)N1Cc1ccc2c(c1)OCO2"
## Output 0.579

## Input For the compound "O=C1[C@H]2[C@H]3[C@H](O)[C@H](O)CC(=NO[C@@H]4O[C@H](CO)[C@@H](O)[C@H](O)[C@H]4O)[C@@H]3CC[C@H]2C(=O)N1C[C@@H]1CCCO1" , what z-score is on record?
## Output -0.618

## Input Please look up its z-score: "CC(C)[C@@H](OCc1ccccc1)[C@H](C)CON=C1[C@H]2CCn3c(=O)n(-c4ccccc4)c(=O)n3[C@H]2[C@H](O)[C@@H]2O[C@H]12"
## Output -1.31

## Input What does the data say about its z-score? Entry: "C#CCCCON=C1C[C@@H](O)[C@@H](O)[C@@H]2[C@@H]3C(=O)N(C4CCCCC4)C(=O)[C@@H]3CC[C@@H]12"
## Output -0.139

## Input // query z-score value for entry COC(=O)[C@H](C)NC(=O)CCC1CC(OC(=O)NCc2cccc3ccccc23)CC2(CCCC(COC(=O)NCc3ccccc3)O2)O1 (stereo not given in full)
## Output -0.653

## Input Please give the measured z-score for this compound: CC1(C)O[C@H]2OC([C@H](O)CON3C(=O)c4ccccc4C3=O)[C@H](O)[C@H]2O1 (stereo not given in full)
## Output 0.0029

## Input Endpoint output: z-score of "O=C1C=C[C@@H](O)[C@@H]2[C@@H]3C(=O)N(Cc4ccc5c(c4)OCO5)C(=O)[C@@H]3CC[C@@H]12" . Value?
## Output 0.0311

## Input Entry under review: "CC[C@@H](c1ccccc1)n1c(=O)n2n(c1=O)[C@H]1[C@H](O)[C@@H]3O[C@@H]3C(=NOCc3ccccc3)[C@H]1CC2" . Reported z-score?
## Output -3.76

## Input Entry "C[C@H]1CC[C@H]2C(=O)N[C@H](Cc3ccccc3)C(=O)N2[C@@H]1c1ccccc1" : reported z-score = ?
## Output 0.194

## Input Recorded z-score for "COc1cccc([C@H]2Oc3ccc(OC)cc3C(=NOCC[C@@H]3C=C[C@H](OC(C)=O)[C@@H](COC(C)=O)O3)[C@@H]2O)c1" , please?
## Output -0.744

## Input Look at this compound and give its reported z-score. C=CC[C@@H]1C=CC(ON=C(C)C)[C@@H](CO)O1 (stereo not given in full)
## Output 0.389

## Input Field request: z-score | item: "O=C1C2=CC[C@H]3C(=O)N(c4ccc(F)cc4F)C(=O)[C@H]3[C@H]2[C@H](O)[C@@H]2O[C@H]12"
## Output 0.0658

## Input Given "C=CC[C@@H]1C=C[C@H](ON=C[C@@H](NS(=O)(=O)c2ccc(C)cc2)[C@H](C)C=CCC(=O)OC)[C@@H](CO)O1" , state its recorded z-score.
## Output 0.405

## Input Could you tell me which z-score is on file for "O=C1C=C[C@@H](O)[C@@H]2[C@@H]3C(=O)N(C4CCCCC4)C(=O)[C@@H]3CC[C@@H]12" ?
## Output -0.602

## Input Fill blank: measured z-score of the compound "CC(CCC(=O)OC[C@H]1O[C@H](C#Cc2ccccc2)C=C[C@@H]1Oc1ccc(C)cc1)=NO[C@@H](C)c1cc(-c2c(C)cc(C)cc2C)no1" is ____.
## Output -0.338

## Input What does the data say about its z-score? Entry: "CO[C@H]1COC(=O)CC=C[C@@H](C)COC(=O)[C@H]2CCCN2C(=O)CC=C[C@H]1C"
## Output 0.707

## Input Recorded z-score for CCN(CC)CC(O)CN1CCCCc2nc(C)c(C)cc21 (stereo not given) , please?
## Output 0.776

## Input I am curious: what z-score value has been reported for CO[C@@H](C(C)C)[C@@H](C)C1OC(=O)CC1O (stereo not given in full) ?
## Output -0.349

## Input Look up z-score: "CCc1cc2c(nc1CC)CCN(CCC(C)=NOCC[C@@H]1C=C[C@H](OC(C)=O)[C@@H](COC(C)=O)O1)C2"
## Output 0.679

## Input GET /values?readout=z-score&item= "CCOC(=O)CCN1C(=O)[C@H]2[C@H]3[C@H](O)[C@H](O)CC(=NNC(=O)OCC)[C@H]3CC[C@H]2C1=O"
## Output -0.418

## Input Dear colleague, I am looking for the recorded z-score of the following compound: "CCN1C(=O)[C@H]2[C@H]3[C@H](O)[C@H](O)CC(=NO[C@H](C)c4cn([C@@H]5COC[C@H]5O)nn4)[C@@H]3CC[C@H]2C1=O"
## Output -0.127

## Input What measured z-score goes with "CO[C@@H]1COC(=O)[C@H](CCSC)NC(=O)CC=C[C@@H](C)COC(=O)[C@@H]2CCCN2C(=O)CC=C[C@H]1C" ?
## Output 0.182
